So I've got a bunch of molecules here, and I need their hemolysis at 1 h, 150 µM values.
assay: in vitro; type: cell-based, human; conditions: human
Peptide text beside a SMILES is read from it.
Write the value in % as a bare number.

Task item: // query hemolysis at 1 h, 150 µM value for entry CC(C)C[C@@H](NC(=O)[C@H](CCCCN)NC(=O)[C@H](CCCCN)NC(=O)[C@@H](N)CCCCN)C(=O)N[C@H](Cc1ccc2ccccc2c1)C(=O)N[C@H](Cc1ccc(O)cc1)C(=O)N[C@H](Cc1ccc2ccccc2c1)C(N)=O [Compound 24] (HELM PEPTIDE1{K.K.K.[dL].[O=C([C@@H](Cc1ccc2ccccc2c1)N[*:1])[*:2]].[dY].[O=C([C@@H](Cc1ccc2ccccc2c1)N[*:1])[*:2]].[am]}$$$$V2.0)
Reply: 23.4

Task item: // query hemolysis at 1 h, 150 µM value for entry CCCC[C@H](NC(=O)[C@H](CCCCN)NC(=O)[C@H](CCCCN)NC(=O)[C@@H](N)CCCCN)C(=O)N[C@@H](Cc1cccc2ccccc12)C(=O)N[C@@H](Cc1ccccc1)C(=O)N[C@@H](Cc1cccc2ccccc12)C(N)=O [Compound 20] (HELM PEPTIDE1{K.K.K.[Nle].[O=C([C@H](Cc1cccc2ccccc12)N[*:1])[*:2]].F.[O=C([C@H](Cc1cccc2ccccc12)N[*:1])[*:2]].[am]}$$$$V2.0)
Reply: 27.5

* * *

assay: in vitro; type: cell-based, human; settings: human
Peptide text beside a SMILES is read from it.
MEASURE: hemolysis at 1 h, 150 µM (%)
Write the value in % as a bare number.

Task item: // query hemolysis at 1 h, 150 µM value for entry CC(C)C[C@H](NC(=O)[C@H](CCCCN)NC(=O)[C@@H](N)CCCCN)C(=O)N[C@@H](CCCCN)C(=O)N[C@@H](Cc1cccc2ccccc12)C(=O)N[C@@H](Cc1ccccc1)C(=O)N[C@@H](Cc1cccc2ccccc12)C(N)=O [Compound 6] (HELM PEPTIDE1{K.K.L.K.[O=C([C@H](Cc1cccc2ccccc12)N[*:1])[*:2]].F.[O=C([C@H](Cc1cccc2ccccc12)N[*:1])[*:2]].[am]}$$$$V2.0; N-terminus assumed)
Reply: 42.7

* * *

experiment: in vitro; assay type: cell-based, human; details: human
Square brackets hold non-standard residues; d marks the D form. Peptide text beside a SMILES is read from it. N(1-naphthylmethyl)Gly = O=C(O)CNCc1cccc2ccccc12; Nphe = O=C(O)CNCc1ccccc1; NBuGly = CCCCNCC(=O)O
MEASURE: hemolysis at 1 h, 150 µM (%)
Write the value in % as a bare number.

Task item: // query hemolysis at 1 h, 150 µM value for entry CCCCN(CC(=O)N[C@@H](CCCCN)C(=O)N(CC(=O)N(CC(=O)N(CC(N)=O)Cc1cccc2ccccc12)Cc1ccccc1)Cc1cccc2ccccc12)C(=O)[C@H](CCCCN)NC(=O)[C@@H](N)CCCCN [Compound 14] (H-KK[NBuGly]K[N(1-naphthylmethyl)Gly][Nphe][N(1-naphthylmethyl)Gly]-NH2)
Reply: 66.4

* * *

Experiment: in vitro
Assay type: cell-based, human
Conditions: human
Experimental: The haemolytic activity of the 24 structurally related peptides (Table 1) was evaluated in erythrocytes from four different species (human, canine, bovine and rat) employing standard methodology. The subsequent release of haemoglobin was used to assess haemolytic activity as function of peptide and peptidomimetic concentration, with concentrations ranging from 0.15 to 150 µM (Presented in whole in Supplementary information Table S1–S4). […]
Peptide text beside a SMILES is read from it.
MEASURE: hemolysis at 1 h, 150 µM (%)
Write the value in % as a bare number.

Task item: // query hemolysis at 1 h, 150 µM value for entry CC(C)C[C@H](NC(=O)[C@H](CCCCN)NC(=O)[C@H](Cc1ccc2ccccc2c1)NC(=O)[C@H](Cc1ccccc1)NC(=O)[C@@H](N)Cc1ccc2ccccc2c1)C(=O)N[C@@H](CCCCN)C(=O)N[C@@H](CCCCN)C(N)=O [Compound 13] (HELM PEPTIDE1{[N[C@@H](Cc1ccc2ccccc2c1)C(=O)[*:2]].F.[O=C([C@H](Cc1ccc2ccccc2c1)N[*:1])[*:2]].K.L.K.K.[am]}$$$$V2.0; N-terminus assumed)
Reply: 55.3

Task item: // query hemolysis at 1 h, 150 µM value for entry CC(C)C[C@@H](NC(=O)[C@@H](Cc1cccc2ccccc12)NC(=O)[C@@H](Cc1ccccc1)NC(=O)[C@H](N)Cc1cccc2ccccc12)C(=O)N[C@@H](CCCCN)C(=O)N[C@@H](CCCCN)C(=O)N[C@@H](CCCCN)C(N)=O [Compound 9] (HELM PEPTIDE1{[N[C@H](Cc1cccc2ccccc12)C(=O)[*:2]].[dF].[O=C([C@@H](Cc1cccc2ccccc12)N[*:1])[*:2]].[dL].K.K.K.[am]}$$$$V2.0)
Reply: 30.8

* * *

test: in vitro; format: cell-based, bovine; settings: bovine
Square brackets hold non-standard residues; d marks the D form. Peptide text beside a SMILES is read from it. N(1-naphthylmethyl)Gly = O=C(O)CNCc1cccc2ccccc12; Nphe = O=C(O)CNCc1ccccc1; NBuGly = CCCCNCC(=O)O
MEASURE: hemolysis at 1 h, 150 µM

Task item: // query hemolysis at 1 h, 150 µM value for entry CCCCN(CC(=O)N[C@@H](CCCCN)C(=O)N[C@@H](CCCCN)C(=O)N[C@@H](CCCCN)C(N)=O)C(=O)CN(Cc1cccc2ccccc12)C(=O)CN(Cc1ccccc1)C(=O)CNCc1cccc2ccccc12 [Compound 2] (H-[N(1-naphthylmethyl)Gly][Nphe][N(1-naphthylmethyl)Gly][NBuGly]KKK-NH2)
Reply: < 8%

Task item: // query hemolysis at 1 h, 150 µM value for entry CC(C)C[C@@H](NC(=O)[C@H](CCCCN)NC(=O)[C@@H](Cc1cccc2ccccc12)NC(=O)[C@@H](Cc1ccccc1)NC(=O)[C@H](N)Cc1cccc2ccccc12)C(=O)N[C@@H](CCCCN)C(=O)N[C@@H](CCCCN)C(N)=O [Compound 8] (HELM PEPTIDE1{[N[C@H](Cc1cccc2ccccc12)C(=O)[*:2]].[dF].[O=C([C@@H](Cc1cccc2ccccc12)N[*:1])[*:2]].K.[dL].K.K.[am]}$$$$V2.0)
Reply: < 8%

* * *

test: in vitro; format: cell-based, rat (Sprague–Dawley); conditions: Sprague-Dawley, rat
Square brackets hold non-standard residues; d marks the D form. Peptide text beside a SMILES is read from it. N(1-naphthylmethyl)Gly = O=C(O)CNCc1cccc2ccccc12; Nphe = O=C(O)CNCc1ccccc1; NBuGly = CCCCNCC(=O)O
So I've got a bunch of molecules here, and I need their hemolysis at 1 h, 150 µM values.

Task item: // query hemolysis at 1 h, 150 µM value for entry CC(C)C[C@@H](NC(=O)[C@H](CCCCN)NC(=O)[C@@H](Cc1cccc2ccccc12)NC(=O)[C@@H](Cc1ccccc1)NC(=O)[C@H](N)Cc1cccc2ccccc12)C(=O)N[C@@H](CCCCN)C(=O)N[C@@H](CCCCN)C(N)=O [Compound 8] (HELM PEPTIDE1{[N[C@H](Cc1cccc2ccccc12)C(=O)[*:2]].[dF].[O=C([C@@H](Cc1cccc2ccccc12)N[*:1])[*:2]].K.[dL].K.K.[am]}$$$$V2.0)
Reply: < 8%

Task item: // query hemolysis at 1 h, 150 µM value for entry CC(C)C[C@@H](NC(=O)[C@@H](Cc1cccc2ccccc12)NC(=O)[C@@H](Cc1ccccc1)NC(=O)[C@H](N)Cc1cccc2ccccc12)C(=O)N[C@@H](CCCCN)C(=O)N[C@@H](CCCCN)C(=O)N[C@@H](CCCCN)C(N)=O [Compound 9] (HELM PEPTIDE1{[N[C@H](Cc1cccc2ccccc12)C(=O)[*:2]].[dF].[O=C([C@@H](Cc1cccc2ccccc12)N[*:1])[*:2]].[dL].K.K.K.[am]}$$$$V2.0)
Reply: < 8%

Task item: // query hemolysis at 1 h, 150 µM value for entry CCCCN(CC(=O)N(CC(=O)N(CC(=O)N(CC(N)=O)Cc1cccc2ccccc12)Cc1ccccc1)Cc1cccc2ccccc12)C(=O)[C@H](CCCCN)NC(=O)[C@H](CCCCN)NC(=O)[C@@H](N)CCCCN [Compound 15] (H-KKK[NBuGly][N(1-naphthylmethyl)Gly][Nphe][N(1-naphthylmethyl)Gly]-NH2)
Reply: 99.5%

Task item: // query hemolysis at 1 h, 150 µM value for entry CC(C)C[C@@H](NC(=O)[C@H](CCCCN)NC(=O)[C@H](CCCCN)NC(=O)[C@@H](N)CCCCN)C(=O)N[C@H](Cc1cccc2ccccc12)C(=O)N[C@H](Cc1ccc(O)cc1)C(=O)N[C@H](Cc1cccc2ccccc12)C(N)=O [Compound 21] (HELM PEPTIDE1{K.K.K.[dL].[O=C([C@@H](Cc1cccc2ccccc12)N[*:1])[*:2]].[dY].[O=C([C@@H](Cc1cccc2ccccc12)N[*:1])[*:2]].[am]}$$$$V2.0)
Reply: < 8%

Task item: // query hemolysis at 1 h, 150 µM value for entry CC(C)C[C@@H](NC(=O)[C@H](CCCCN)NC(=O)[C@@H](N)CCCCN)C(=O)N[C@@H](CCCCN)C(=O)N[C@H](Cc1cccc2ccccc12)C(=O)N[C@H](Cc1ccccc1)C(=O)N[C@H](Cc1cccc2ccccc12)C(N)=O [Compound 10] (HELM PEPTIDE1{K.K.[dL].K.[O=C([C@@H](Cc1cccc2ccccc12)N[*:1])[*:2]].[dF].[O=C([C@@H](Cc1cccc2ccccc12)N[*:1])[*:2]].[am]}$$$$V2.0)
Reply: < 8%
